Reference source for all entries: patent USRE48461E1

In this section we review reported IC50 values for a set of substances.
# System: AR mRNA
# Assay notes: Dose-dependent antisense inhibition of human AR in HuVEC cells (electroporation, qRT-PCR RTS3559, IC50)
# Assay type: cell-based
# Details: Table 31; HuVEC, electroporation, approximately 16 hours
Oligonucleotides are written 5' to 3', each unit as a sugar letter and its base; * is a phosphorothioate linkage, no mark a phosphodiester; rarer units and linkages stand in square brackets, end groups in braces. Plain capitals give the bases only. k = constrained ethyl (cEt); [5mC] = 5-methylcytosine; d = 2'-deoxy (DNA)
Respond with the bare value in µM.

Any idea what its IC50 is? The substance is 583746 (antisense kT*kG*k[5mC]*dG*d[5mC]*dT*d[5mC]*dG*d[5mC]*dG*dG*d[5mC]*d[5mC]*kT*k[5mC]*kT) [compound 583746]
0.35

Others:
Any idea what its IC50 is? The substance is 583789 (antisense kT*kG*k[5mC]*dA*dT*dG*dG*dT*dG*d[5mC]*dT*dG*dG*k[5mC]*k[5mC]*kT) [compound 583789]
0.19

Any idea what its IC50 is? The substance is 583693 (antisense k[5mC]*kT*kG*dT*dG*dA*dT*dG*dA*dT*dG*d[5mC]*dG*kG*kT*kA) [compound 583693]
0.38

Any idea what its IC50 is? The substance is 583795 (antisense kT*kG*k[5mC]*dT*dG*dT*dT*dG*d[5mC]*dT*dG*dA*dA*kG*kG*kA) [compound 583795]
0.09

Any idea what its IC50 is? The substance is 583821 (k[5mC]*kA*kG*dA*dA*dA*dT*dG*dG*dT*d[5mC]*dG*dA*kA*kG*kT) [compound 583821]
0.46

====

# Test system: AR mRNA
# Assay notes: Antisense inhibition of human AR in HuVEC cells, single concentration (electroporation, qRT-PCR RTS3559)
# Assay type: cell-based
# Details: Table 23, 500 nM oligonucleotide, electroporation, approximately 24 hours, relative to untreated control
Oligonucleotides are written 5' to 3', each unit as a sugar letter and its base; * is a phosphorothioate linkage, no mark a phosphodiester; rarer units and linkages stand in square brackets, end groups in braces. Plain capitals give the bases only. k = constrained ethyl (cEt); [5mC] = 5-methylcytosine; d = 2'-deoxy (DNA)
Parameter measured: % inhibition (%)
Respond with the bare value in %.

Any idea what its % inhibition is? The substance is 584128 (kA*kT*kT*d[5mC]*dT*dT*dG*dA*d[5mC]*dT*dG*dT*d[5mC]*kT*kG*kA; antisense) [compound 584128]
38

Others:
Any idea what its % inhibition is? The substance is 584125 (kG*k[5mC]*k[5mC]*dA*dT*dG*dA*dG*dA*d[5mC]*dA*dG*d[5mC]*kT*kT*kT; antisense) [compound 584125]
35

Any idea what its % inhibition is? The substance is 549458 (kG*kT*kT*dG*dA*dT*dT*dT*dA*dA*dT*dG*dG*kT*kT*kG) [compound 549458]
51

Any idea what its % inhibition is? The substance is 584069 (k[5mC]*kA*kG*dA*dG*dT*d[5mC]*dA*dT*d[5mC]*d[5mC]*d[5mC]*dT*kG*k[5mC]*kT; antisense) [compound 584069]
36

Any idea what its % inhibition is? The substance is 584111 (kG*kT*kT*dT*dT*d[5mC]*dA*dA*dA*dT*dG*d[5mC]*dA*kG*k[5mC]*k[5mC]; antisense) [compound 584111]
33

Any idea what its % inhibition is? The substance is 584138 (k[5mC]*kG*k[5mC]*dG*d[5mC]*dA*dG*dG*dT*dA*dG*dG*dA*kG*k[5mC]*k[5mC]; antisense) [compound 584138]
35

Any idea what its % inhibition is? The substance is 549372 (kA*kA*kG*dT*dT*dG*dT*dA*dG*dT*dA*dG*dT*k[5mC]*kG*k[5mC]) [compound 549372]
25

Any idea what its % inhibition is? The substance is 584139 (kT*k[5mC]*kT*dA*dA*dA*d[5mC]*dA*dT*dG*dA*d[5mC]*dG*kG*kT*kT; antisense) [compound 584139]
37

====

# Test system: LMR20 cells
# Assay notes: Proliferation of MDV3100-resistant LMR20 cells (MTT; with R1881 or DHT)
# Assay type: cell-based, human
# Details: CSS, ASO 0.20 μM, 5 days
Parameter measured: Percent inhibition of LMR20 cell proliferation (%)
Respond with the bare value in %.

Example results:
Any idea what its Percent inhibition of LMR20 cell proliferation is? The sequence is TGATTTAATGGTTGCA [ISIS 569236] (cEt/MOE gapmer chemistry, further chemistry not given here) [targets intron 1]
10

Any idea what its Percent inhibition of LMR20 cell proliferation is? The sequence is GTTGATTTAATGGTTG (all phosphorothioate, sugars by position not given here; further chemistry not fully specified) [ISIS 549458]
0

Any idea what its Percent inhibition of LMR20 cell proliferation is? The sequence is TTGATTTAATGGTTGC [ISIS 560131] (MOE and (S)-cEt gapmer chemistry, further chemistry not given here) [targets intron 1]
0

Turning now to a further sequence:
Any idea what its Percent inhibition of LMR20 cell proliferation is? The sequence is ACCAAGTTTCTTCAGC (LNA gapmer, phosphorothioate backbone, further chemistry not given here) [ISIS 554221, 3-10-3 LNA gapmer, phosphorothioate backbone, targeted to exon 4 of AR; benchmark, reference compound]
1

====

# Test system: TMPRSS2 mRNA
# Assay notes: TMPRSS2 mRNA levels in LMR20 cells
# Format: cell-based, human
# Details: LMR20 cells, no AR agonist, ASO 0.20 μM
Oligonucleotides are written 5' to 3', each unit as a sugar letter and its base; * is a phosphorothioate linkage, no mark a phosphodiester; rarer units and linkages stand in square brackets, end groups in braces. Plain capitals give the bases only. e = 2'-O-(2-methoxyethyl) (MOE); l = locked nucleic acid (LNA); k = constrained ethyl (cEt); [5mC] = 5-methylcytosine; d = 2'-deoxy (DNA)
Parameter measured: TMPRSS2 mRNA levels (% baseline value) of cells without AR agonist treatment

Example results:
Any idea what its TMPRSS2 mRNA levels (% baseline value) of cells without AR agonist treatment is? The substance is 569236 (antisense eT*kG*kA*kT*dT*dT*dA*dA*dT*dG*dG*kT*kT*kG*e[5mC]*eA) [compound 569236]
81 % baseline value

Any idea what its TMPRSS2 mRNA levels (% baseline value) of cells without AR agonist treatment is? The substance is 554221 (ACCAAGTTTCTTCAGC; sugars from the 5' end l3 d10 l3, all phosphorothioate, methylation of C not given here) [compound 554221]
117 % baseline value

Any idea what its TMPRSS2 mRNA levels (% baseline value) of cells without AR agonist treatment is? The substance is 549458 (kG*kT*kT*dG*dA*dT*dT*dT*dA*dA*dT*dG*dG*kT*kT*kG) [compound 549458]
85 % baseline value

Turning now to a further substance:
Any idea what its TMPRSS2 mRNA levels (% baseline value) of cells without AR agonist treatment is? The substance is 560131 (antisense kT*kT*kG*dA*dT*dT*dT*dA*dA*dT*dG*dG*kT*kT*kG*e[5mC]) [compound 560131]
67 % baseline value

====

# System: AR mRNA
# Assay notes: Dose-dependent antisense inhibition of human AR in HuVEC cells (electroporation, qRT-PCR RTS3559, IC50)
# Type: cell-based
# Details: 46.9 nM; HuVEC, ~16 h; Table 15
Oligonucleotides are written 5' to 3', each unit as a sugar letter and its base; * is a phosphorothioate linkage, no mark a phosphodiester; rarer units and linkages stand in square brackets, end groups in braces. Plain capitals give the bases only. k = constrained ethyl (cEt); [5mC] = 5-methylcytosine; d = 2'-deoxy (DNA)
In this section we review reported percent inhibition of AR values for a set of substances.
Respond with the bare value in %.

Example results:
Any idea what its percent inhibition of AR is? The substance is 549372 (kA*kA*kG*dT*dT*dG*dT*dA*dG*dT*dA*dG*dT*k[5mC]*kG*k[5mC]) [compound 549372]
9

Any idea what its percent inhibition of AR is? The substance is 586224 (kT*kT*kG*kA*kT*dT*dT*dA*dA*dT*dG*dG*dT*kT*kG*k[5mC]; antisense) [compound 586224]
39

Any idea what its percent inhibition of AR is? The substance is 586227 (kT*kG*kA*kT*kT*dT*dA*dA*dT*dG*dG*dT*dT*kG*k[5mC]*kA; antisense) [compound 586227]
20

Any idea what its percent inhibition of AR is? The substance is 549458 (kG*kT*kT*dG*dA*dT*dT*dT*dA*dA*dT*dG*dG*kT*kT*kG) [compound 549458]
15

Any idea what its percent inhibition of AR is? The substance is 586225 (kG*kT*kT*kG*kA*dT*dT*dT*dA*dA*dT*dG*dG*kT*kT*kG; antisense) [compound 586225]
17

Turning now to a further substance:
Any idea what its percent inhibition of AR is? The substance is 586124 (kG*kA*kT*dT*dT*dA*dA*dT*dG*dG*dT*dT*dG*k[5mC]*kA*kA; further chemistry not given here) [compound 586124]
28
